Tested on: TIE2
Construct: gene TEK
Details: Compound Concentration (nM):1000;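 note: KINOMEscan scanMAX binding as percent activity remaining versus control; lower means stronger binding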
Reported Percent Control values follow for various molecules

{"columns": ["Molecule", "Percent Control"],
 "data": [
  ["Cl.O=C(Nc1ccc(Oc2ccc3[nH]c(NC(=O)c4ccco4)nc3c2)cc1)Nc1cc(C(F)(F)F)ccc1F [GW683134A]", "1.9%"],
  ["COc1cc(N2CCN(C(C)C)CC2)ccc1Nc1nc(Nc2ccc(F)cc2C(=O)NC[C@@H](O)CO)c2cc[nH]c2n1 [GSK1392956A]", "100%"],
  ["CC(C)COC(=O)c1ccc2c(c1)/C(=C/Nc1ccc(S(N)(=O)=O)cc1)C(=O)N2 [GW416981X]", "100%"],
  ["Cl.O=C(O[C@H]1CN[C@H](C#Cc2cc3ncnc(Nc4ccc5c(cnn5Cc5ccccc5)c4)c3s2)C1)N1CCOCC1 [GSK200398A]", "100%"],
  ["CCn1c(-c2nonc2N)nc2c(C#CC(C)(C)O)nc(OCCNC)cc21.Cl", "96%"],
  ["NS(=O)(=O)c1ccc(N/N=C2\\C(=O)Nc3ccc(C(=O)NCCc4c[nH]cn4)cc32)cc1 [GW300660X]", "100%"],
  ["COc1cccc(-c2c[nH]c3c(N/N=C/c4ccncc4)ncnc23)c1 [GW814408X]", "100%"],
  ["Cl.O=S1CCN(Cc2ccc(-c3ccc4ncnc(Nc5ccc(OCc6ccccc6)c(F)c5)c4c3)o2)CC1 [GW576924A]", "100%"],
  ["NS(=O)(=O)c1ccc(N/N=C2\\C(=O)Nc3ccc(-c4cnco4)cc32)cc1", "100%"],
  ["COc1cc2ncnc(Nc3ccc4c(cnn4Cc4ccccc4)c3)c2cc1OC.Cl [GW282449A]", "100%"],
  ["NS(=O)(=O)c1ccc(N/N=C2\\C(=O)Nc3ccc(Cl)cc32)cc1 [GW280670X]", "100%"],
  ["COC(=O)Nc1nc2ccc(Oc3ccc(NC(=O)Nc4cc(C(F)(F)F)ccc4F)cc3)cc2s1.Cl [GW693917A]", "0.6%"],
  ["COc1cc(C=NNc2ncnc3c2cnn3-c2ccccc2)ccc1O [GW513184X]", "65%"],
  ["COc1cc(/C=N/Nc2ncnc3[nH]ncc23)ccc1O [GW578748X]", "100%"],
  ["CC1=C(C(=O)Nc2ccc3[nH]ncc3c2)C(c2ccc(Cl)c(Cl)c2)CC(=O)N1 (stereo not drawn) [GSK299115A]", "100%"],
  ["CN(C)c1cc2c(Nc3ccc4c(cnn4Cc4ccccc4)c3)ncnc2cn1 [GW282974X]", "100%"],
  ["Cl.O=C(Nc1ccc(Oc2ccc3[nH]c(NC(=O)c4ccccc4)nc3c2)cc1)Nc1cc(C(F)(F)F)ccc1F [GW709042A]", "7.5%"],
  ["CCS(=O)(=O)c1ccc(OC)c(Nc2ncc(-c3cccc(F)c3)o2)c1 [GW621970X]", "100%"]
]}

###

Reported Percent Control values for the following compounds.
Test system: EPHA3
Settings: Compound Concentration (nM):1000

{"columns": ["Compound", "Measured Target", "Percent Control"],
 "data": [
  ["Nc1ncnc2occ(-c3ccc(NC(=O)Nc4cc(C(F)(F)F)ccc4F)cc3)c12 [GW770249X]", "EPHA3", "19%"],
  ["O=C(Nc1n[nH]c2nc(-c3ccc(O)cc3)c(Br)cc12)C1CC1", "EPHA3", "85%"],
  ["COc1cc2ncn(-c3cc(O[C@H](C)c4ccccc4Cl)c(C(N)=O)s3)c2cc1OC [GSK237701A]", "EPHA3", "100%"],
  ["COC(=O)Nc1nc2ccc(Oc3ccc(NC(=O)Nc4cc(C(F)(F)F)ccc4F)cc3)cc2s1.Cl [GW693917A]", "EPHA3", "9.9%"],
  ["NS(=O)(=O)c1ccc(N/N=C2\\C(=O)Nc3ccc(C(=O)NCCc4c[nH]cn4)cc32)cc1 [GW300660X]", "EPHA3", "100%"],
  ["COc1cc(C)c(N(C)C(=O)CN(C)C)cc1Nc1nc(Nc2cccc(F)c2C(N)=O)c2cc[nH]c2n1", "EPHA3", "100%"],
  ["CN(C)c1cc2c(Nc3ccc4c(cnn4Cc4ccccc4)c3)ncnc2cn1 [GW282974X]", "EPHA3", "98%"],
  ["C/C(Nc1ccc(S(N)(=O)=O)cc1)=C1/C(=O)Nc2ccccc21 [GW335962X]", "EPHA3", "100%"]
]}
